The measured values listed here are drawn from patent US7795261B2.

Exercise: state measured IC50 for each of the compounds provided.
Molecular target: NK1 (Homo sapiens, UniProt P25103)
Sequence (P25103 whole entry): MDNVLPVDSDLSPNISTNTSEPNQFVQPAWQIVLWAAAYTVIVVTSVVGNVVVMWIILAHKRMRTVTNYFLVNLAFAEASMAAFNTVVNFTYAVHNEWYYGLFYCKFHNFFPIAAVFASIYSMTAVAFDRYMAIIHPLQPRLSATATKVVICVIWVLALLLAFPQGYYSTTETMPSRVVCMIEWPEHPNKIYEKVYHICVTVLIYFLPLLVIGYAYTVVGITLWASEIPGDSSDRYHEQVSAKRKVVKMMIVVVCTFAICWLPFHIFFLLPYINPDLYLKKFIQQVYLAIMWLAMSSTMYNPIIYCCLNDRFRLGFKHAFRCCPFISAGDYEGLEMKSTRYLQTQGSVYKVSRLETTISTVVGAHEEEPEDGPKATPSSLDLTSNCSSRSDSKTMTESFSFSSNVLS
Test: Signal transduction (ST), intracellular Ca++ (FLIPR), NK1 antagonistic activity
Format: cell-based
Settings: read-out: pIC50 NK1 (converted)
Experimental: This test evaluates in vitro functional NK1 antagonistic activity. For the measurements of intracellular Ca^++ concentrations the cells were grown on 96-well (black wall/transparent bottom) plates from Costar for 2 days until they reached confluence. […] The cells were preincubated with a concentration range of antagonists for 20 min at RT and Ca^++-signals after addition of the agonists were measured in a Fluorescence Image Plate Reader (FLIPR from Molecular Devices, Crawley, England). […]

Below: 4 compounds and their reported IC50.
O=C(c1c(Cl)cccc1Cl)N1CCC(N2CCN([C@H]3CCN(C(=O)c4cc(C(F)(F)F)cc(C(F)(F)F)c4)[C@H](Cc4ccccc4)C3)CC2)C1 (some centres unmarked) = 12.6 nM
N#Cc1ccc(C(=O)N2CCC(N3CCN([C@H]4CCN(C(=O)c5cc(C(F)(F)F)cc(C(F)(F)F)c5)[C@H](Cc5ccccc5)C4)CC3)C2)cc1 (some centres unmarked) = 6.31 nM
Cc1nc(S(=O)(=O)N2CCC(N3CCN([C@H]4CCN(C(=O)c5cc(C(F)(F)F)cc(C(F)(F)F)c5)[C@H](Cc5ccccc5)C4)CC3)C2)cn1C (some centres unmarked) = 31.6 nM
O=C(c1ccoc1)N1CCC(N2CCN(C3CCN(C(=O)c4cc(C(F)(F)F)cc(C(F)(F)F)c4)C(Cc4ccc(F)c(F)c4)C3)CC2)C1 (single isomer, unassigned) [Compound 258] = 12.6 nM

Per the record, Cn1c(C(=O)N2CCC(N3CCN([C@H]4CCN(C(=O)c5cc(C(F)(F)F)cc(C(F)(F)F)c5)[C@H](Cc5ccccc5)C4)CC3)C2)cc2ccccc21 (some centres unmarked) has IC50 of 126 nM
